Target: T1, DR4G104: Human HLA-DRA1*01:02/DRB1*04:02 ECD with hemagglutinin peptide HA_304-318 (human)
T1 construct: also called DRB1*04:02 HA
Assay: MSD ECL; antigen coated; protocol of Example 3
This section presents binders with their documented ECL signal values.
measured parameter: ECL signal (ECL)

binder	units symbol	result value
DR4B4 (antibody, V domains shown, also called Lym-1 re-engineered as IgG2sigma) VH: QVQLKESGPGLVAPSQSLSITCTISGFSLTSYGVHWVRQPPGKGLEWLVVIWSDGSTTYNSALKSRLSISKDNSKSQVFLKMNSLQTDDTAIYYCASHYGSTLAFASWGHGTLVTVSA VL: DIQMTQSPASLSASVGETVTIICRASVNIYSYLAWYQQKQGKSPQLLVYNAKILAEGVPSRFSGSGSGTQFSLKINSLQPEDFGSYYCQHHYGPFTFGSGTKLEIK	ECL	451
DR4B5 (antibody, V domains shown, also called apolizumab (1D10) re-engineered as IgG2sigma) VH: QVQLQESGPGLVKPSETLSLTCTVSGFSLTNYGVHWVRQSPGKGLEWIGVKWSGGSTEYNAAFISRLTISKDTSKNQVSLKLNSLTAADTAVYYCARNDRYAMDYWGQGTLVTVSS VL: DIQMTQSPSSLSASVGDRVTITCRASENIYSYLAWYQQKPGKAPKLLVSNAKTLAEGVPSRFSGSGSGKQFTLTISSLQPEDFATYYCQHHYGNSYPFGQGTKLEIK	ECL	825
DR4B127 (antibody, human IgG2, kappa, V domains shown, also called VH DR4H7 / VL PH9L3) VH: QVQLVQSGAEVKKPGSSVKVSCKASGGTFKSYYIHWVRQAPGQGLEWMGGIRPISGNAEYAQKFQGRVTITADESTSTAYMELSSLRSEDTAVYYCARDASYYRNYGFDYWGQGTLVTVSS VL: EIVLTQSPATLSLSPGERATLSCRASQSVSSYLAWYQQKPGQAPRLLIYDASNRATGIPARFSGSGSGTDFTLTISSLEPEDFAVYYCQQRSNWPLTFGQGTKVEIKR	ECL	1.27e+06
DR4B6 (antibody, V domains shown, also called L243 re-engineered as IgG2sigma) VH: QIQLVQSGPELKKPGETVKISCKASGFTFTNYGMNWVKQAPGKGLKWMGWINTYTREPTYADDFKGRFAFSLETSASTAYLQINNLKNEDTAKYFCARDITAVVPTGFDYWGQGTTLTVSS VL: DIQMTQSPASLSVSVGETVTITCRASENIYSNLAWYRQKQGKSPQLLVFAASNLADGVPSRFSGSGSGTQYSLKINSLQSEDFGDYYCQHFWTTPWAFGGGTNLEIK	ECL	415000
DR4B98 (antibody, human IgG2, kappa, V domains shown, also called VH DR4H50 / VL PH9L3) VH: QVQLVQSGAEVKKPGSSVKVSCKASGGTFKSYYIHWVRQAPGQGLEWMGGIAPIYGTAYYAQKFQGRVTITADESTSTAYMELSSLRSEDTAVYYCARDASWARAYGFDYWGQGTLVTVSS VL: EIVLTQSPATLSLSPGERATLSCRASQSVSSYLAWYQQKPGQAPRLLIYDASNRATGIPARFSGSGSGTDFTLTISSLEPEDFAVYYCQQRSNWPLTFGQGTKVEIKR	ECL	421000
